The origin of these recorded values is patent US9181258B2.

target: human PIM2 (Homo sapiens (Human), UniProt Q9P1W9)
Sequence (Q9P1W9 whole entry): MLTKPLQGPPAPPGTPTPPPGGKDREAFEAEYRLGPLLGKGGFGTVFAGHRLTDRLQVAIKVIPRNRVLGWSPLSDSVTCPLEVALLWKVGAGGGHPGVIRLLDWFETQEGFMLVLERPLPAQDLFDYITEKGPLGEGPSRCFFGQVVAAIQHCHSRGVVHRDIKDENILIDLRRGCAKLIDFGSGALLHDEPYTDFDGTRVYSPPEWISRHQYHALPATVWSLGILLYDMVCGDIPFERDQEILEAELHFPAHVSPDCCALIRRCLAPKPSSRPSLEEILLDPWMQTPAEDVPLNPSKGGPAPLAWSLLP
pIC50: −log10 of the molar value. Structures can show the parent of a compound that is named as a salt.
value-type: pIC50

| molecule | reported-measurement |
| --- | --- |
| CN(C)Cc1ccc(-c2c(-c3cccc(OC(F)(F)F)c3)cc3n2[C@@H](CCCN)CNC3=O)cc1 [Compound 134, dihydrochloride] | 7.18 |
| CN1CCN(Cc2ccc(-c3c(-c4cccc(OC(F)(F)F)c4)cc4n3[C@@H](CCCN)CNC4=O)cc2)CC1 [Compound 135, dihydrochloride] | 7.89 |
| CC(C)[C@H]1CNC(=O)c2cc(-c3cccc(OC(F)(F)F)c3)c(-c3ccc(CN)cc3)n21 [Compound 138] | 6.76 |
| Cc1cc(-c2c(-c3cccc(OC(F)(F)F)c3)cc3n2[C@@H](CCN)CNC3=O)ccc1F [Compound 122, hydrochloride] | 7.07 |
| CS(=O)(=O)c1ccc(-c2c(-c3cccc(OC(F)(F)F)c3)cc3n2[C@@H](CCCN)CNC3=O)cc1 [Compound 109, hydrochloride] | 7.09 |
| NCCC1CNC(=O)c2cc(-c3cccc(C(F)(F)F)c3)c(-c3ccc(O)cc3)n21 (stereo not shown) [Compound 43, hydrochloride] | 7.68 |
| CS(=O)(=O)c1ccc(-c2c(-c3cccc(OC(F)(F)F)c3)cc3n2[C@@H](CCNC(=N)N)CNC3=O)cc1 [Compound 149, hydrochloride] | 7.72 |
| COc1ccc(-c2c(-c3cccc(OC(F)(F)F)c3)cc3n2[C@@H](CCN)CNC3=O)cc1 [Compound 116, hydrochloride] | 7.66 |
| CS(=O)(=O)NCC[C@H]1CNC(=O)c2cc(-c3cccc(OC(F)(F)F)c3)c(-c3ccccc3)n21 [Compound 147] | 6.76 |
| NCC[C@H]1CNC(=O)c2cc(-c3cccc(OC(F)(F)F)c3)c(-c3ccc4c(c3)OCO4)n21 [Compound 112, hydrochloride] | 7.80 |
| NCCC1CNC(=O)c2cc(-c3cccc(OC(F)(F)F)c3)c(-c3ccsc3)n21 (stereo not shown) [Compound 29, hydrochloride] | 6.84 |
| NCCC[C@H]1CNC(=O)c2cc(-c3cccc(OC(F)(F)F)c3)c(-c3ccccc3)n21 [Compound 102, hydrochloride] | 6.81 |
| CN1CCN(Cc2ccc(-c3c(-c4cccc(OC(F)(F)F)c4)cc4n3[C@@H](CCN)CNC4=O)cc2)CC1 [Compound 100, hydrochloride] | 8.70 |

---

target: UniProt:P11309
Sequence (P11309 whole entry): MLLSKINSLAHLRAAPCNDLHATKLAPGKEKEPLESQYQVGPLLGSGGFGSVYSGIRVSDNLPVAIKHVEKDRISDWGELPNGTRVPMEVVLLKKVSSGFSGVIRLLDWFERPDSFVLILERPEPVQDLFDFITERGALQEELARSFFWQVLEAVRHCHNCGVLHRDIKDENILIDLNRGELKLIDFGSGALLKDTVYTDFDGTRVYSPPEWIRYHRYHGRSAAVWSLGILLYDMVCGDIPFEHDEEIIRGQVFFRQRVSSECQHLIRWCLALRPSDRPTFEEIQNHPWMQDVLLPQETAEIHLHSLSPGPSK
Where a name gives a salt, the structure may show the parent alone.
Overview of reported IC50 across a group of compounds:
value-type: IC50

| compound | reported-measurement |
| --- | --- |
| CN1CCN(Cc2ccc(-c3c(-c4cccc(OC(F)(F)F)c4)cc4n3[C@@H](CCCN)CNC4=O)cc2)CC1 [Compound 135, dihydrochloride] | 1 nM |
| NCC[C@H]1CNC(=O)c2cc(-c3cccc(OC(F)(F)F)c3)c(-c3ccc4ccccc4c3)n21 [Compound 118, hydrochloride] | 27 nM |
| NCCC1CNC(=O)c2cc(-c3cccc(OC(F)(F)F)c3)c(-c3ccc(CO)cc3)n21 (centres unmarked) [Compound 33, hydrochloride] | 4 nM |
| NCC[C@H]1CNC(=O)c2cc(-c3cccc(OC(F)(F)F)c3)c(-c3cccc(F)c3)n21 [Compound 121, hydrochloride] | 3 nM |
| COc1ccc(-c2c(-c3cccc(OC(F)(F)F)c3)cc3n2[C@@H](CCN)CNC3=O)cc1F [Compound 113, hydrochloride] | 23 nM |
| NCC[C@H]1CNC(=O)c2cc(-c3cccc(OC(F)(F)F)c3)c(-c3cccc(C(F)(F)F)c3)n21 [Compound 125, hydrochloride] | 44 nM |
| CN(C)Cc1ccc(-c2c(-c3cccc(OC(F)(F)F)c3)cc3n2C(CCO)CNC3=O)cc1 (centres unmarked) [Compound 83, trifluoroacetate] | 4 nM |
| NCCC1CNC(=O)c2cc(-c3ccnc(Cl)c3)c(-c3ccc(CO)cc3)n21 (centres unmarked) [Compound 44, hydrochloride] | 24 nM |
| NCCC1CNC(=O)c2cc(-c3cc(Cl)ccc3F)c(-c3ccsc3)n21 (centres unmarked) [Compound 55, hydrochloride] | 17 nM |
| NCCC[C@H]1CNC(=O)c2cc(-c3cccc(OC(F)(F)F)c3)c(-c3ccsc3)n21 [Compound 103, hydrochloride] | 11 nM |
| CN(C)Cc1ccc(-c2c(-c3cccc(OC(F)(F)F)c3)cc3n2[C@@H](CCN)CNC3=O)cc1 [Compound 101, hydrochloride] | 1 nM |
| Cc1cccc(-c2c(-c3cccc(OC(F)(F)F)c3)cc3n2C(CCN)CNC3=O)c1 (centres unmarked) [Compound 31, hydrochloride] | 23 nM |
| CN(C)Cc1ccc(-c2c(-c3cccc(OC(F)(F)F)c3)cc3n2C(CCCl)CNC3=O)cc1 (centres unmarked) [Compound 70, trifluoroacetate] | 16 nM |
| CN(C)c1ccc(-c2c(-c3cccc(OC(F)(F)F)c3)cc3n2[C@@H](CCN)CNC3=O)cc1 [Compound 115, hydrochloride] | 3 nM |
